Value source: ChEMBL document CHEMBL1127140

assay: Tested for chemical stability of the compound; type: physicochemical
Decide using half-life alone. Strictly below 300 min: Met. Equal to or above 300 min: Not met.

[
  {
    "Compound": "CC1(C)[C@H](C(=O)OCc2ccc(C(=O)O)cc2)N2C(=O)[C@H](NC(=O)C(F)(F)F)[C@H]2[S+]1[O-] (stereo not given in full)",
    "Answer label": "Met"
  },
  {
    "Compound": "CC1(C)[C@H](C(=O)OCc2ccc(C(=O)O)cc2)N2C(=O)[C@H](NC(=O)C(F)(F)F)[C@H]2S1(=O)=O",
    "Answer label": "Met"
  },
  {
    "Compound": "CN(Cc1ccc(C(=O)O)cc1)C(=O)[C@@H]1N2C(=O)[C@H](NC(=O)C(F)(F)F)[C@H]2[S+]([O-])C1(C)C (stereo not given in full)",
    "Answer label": "Not met"
  },
  {
    "Compound": "CN(Cc1ccc(C(=O)O)cc1)C(=O)[C@@H]1N2C(=O)[C@@H](NC(=O)C(F)(F)F)[C@H]2S(=O)(=O)C1(C)C",
    "Answer label": "Met"
  },
  {
    "Compound": "CC1(C)[C@H](C(=O)OCc2ccc(C(=O)O)cc2)N2C(=O)[C@H](NC(=O)C(F)(F)F)[C@@H]2[S+]1[O-] (stereo not given in full)",
    "Answer label": "Not met"
  },
  {
    "Compound": "CO[C@H]1C(=O)N2[C@@H](C(=O)OCc3ccc(C(=O)O)cc3)C(C)(C)S(=O)(=O)[C@H]12",
    "Answer label": "Met"
  },
  {
    "Compound": "CN(Cc1ccc(C(=O)O)cc1)C(=O)[C@@H]1N2C(=O)[C@H](NC(=O)C(F)(F)F)[C@@H]2[S+]([O-])C1(C)C (stereo not given in full)",
    "Answer label": "Not met"
  },
  {
    "Compound": "CC1(C)[C@H](C(=O)OCc2ccc(C(=O)O)cc2)N2C(=O)[C@@H](NC(=O)C(F)(F)F)[C@H]2S1(=O)=O",
    "Answer label": "Met"
  },
  {
    "Compound": "CN(CC(=O)O)C(=O)[C@@H]1N2C(=O)[C@H](NC(=O)C(F)(F)F)[C@H]2S(=O)(=O)C1(C)C",
    "Answer label": "Met"
  },
  {
    "Compound": "CN(Cc1ccc(C(=O)O)cc1)C(=O)[C@@H]1N2C(=O)[C@H](NC(=O)C(F)(F)F)[C@H]2S(=O)(=O)C1(C)C",
    "Answer label": "Met"
  }
]
